target: p38MAPKγ (MAPK12) (Homo sapiens, UniProt P53778)
Construct: purchased Life Technologies
Sequence (P53778 whole entry): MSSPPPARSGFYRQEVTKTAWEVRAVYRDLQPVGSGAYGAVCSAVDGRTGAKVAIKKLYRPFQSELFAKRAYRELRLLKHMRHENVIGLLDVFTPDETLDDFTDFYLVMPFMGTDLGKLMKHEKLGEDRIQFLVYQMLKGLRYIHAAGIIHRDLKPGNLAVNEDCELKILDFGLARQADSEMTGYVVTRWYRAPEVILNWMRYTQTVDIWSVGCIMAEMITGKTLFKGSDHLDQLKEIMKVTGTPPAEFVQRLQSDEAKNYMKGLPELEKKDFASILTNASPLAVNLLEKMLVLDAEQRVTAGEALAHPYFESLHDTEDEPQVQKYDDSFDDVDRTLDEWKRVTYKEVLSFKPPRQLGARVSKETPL
testDescription: p38 MAPKγ enzyme inhibition (Z-LYTE FRET)
Format: biochemical
conditionContext: Table 2A; read-out: IC50 Values for Enzyme Inhibition p38 MAPKγ
readoutKind: pIC50
pIC50 (log units): -log10 of the concentration in mol/L.

The molecule "CNC(=O)c1cnc(Nc2cc(COc3ccc(NC(=O)Nc4cc(C(C)(C)C)nn4-c4ccc(C)cc4)c4ccccc34)ccn2)cn1" showed pIC50 equal to 6.82

Just so you know, measured pIC50 for "Cc1ccc(-n2nc(C(C)(C)C)cc2NC(=O)Nc2ccc(OCc3ccnc(Nc4cncc(C5CC5)n4)c3)c3ccccc23)s1" came out at 6.48

Recorded result, Cc1cc(-n2nc(C(C)(C)C)cc2NC(=O)Nc2ccc(OCc3ccnc(Nc4cnccn4)c3)c3ccccc23)cs1 (single isomer, unassigned) , pIC50: 6.95

Consider "Cc1ccc(-n2nc(C(C)(C)C)cc2NC(=O)Nc2ccc(OCc3ccnc(Nc4cnc(C(=O)N5CCOCC5)cn4)c3)c3ccccc23)cc1" . Its measured pIC50 is 6.77

---

target: p38 MAPKα isoform (MAPK14) (Homo sapiens, UniProt Q16539)
Construct: purchased Life Technologies
Sequence (Q16539 whole entry, canonical isoform): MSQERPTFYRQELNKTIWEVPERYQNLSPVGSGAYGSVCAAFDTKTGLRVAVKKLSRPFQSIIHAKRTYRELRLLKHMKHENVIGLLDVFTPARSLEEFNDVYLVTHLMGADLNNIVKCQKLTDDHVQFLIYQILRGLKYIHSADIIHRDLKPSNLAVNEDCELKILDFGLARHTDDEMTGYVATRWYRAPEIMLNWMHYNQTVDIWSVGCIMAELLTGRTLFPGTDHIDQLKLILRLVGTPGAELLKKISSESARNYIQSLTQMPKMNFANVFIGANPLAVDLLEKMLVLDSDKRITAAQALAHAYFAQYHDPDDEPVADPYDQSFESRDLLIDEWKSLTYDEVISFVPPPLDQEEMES
testDescription: p38 MAPKα enzyme inhibition (Z-LYTE FRET)
Type: biochemical
conditionContext: Table 2B, unit inferred; read-out: p38 MAPKα (Enzyme Profile)
Procedure: The enzyme inhibitory activities of compounds disclosed herein were determined by FRET using synthetic peptides labelled with both donor and acceptor fluorophores (Z-LYTE, Life Technologies, Paisley, UK). The inhibitory activities of compounds of the invention against the p38 MAPKα isoform (MAPK14: Life Technologies), were evaluated indirectly by determining the level of activation/phosphorylation of the target peptide of the p38 MAPKα down-stream molecule, MAPKAP-K2. […]
readoutKind: pIC50
// pIC50: -log10(molar conc.)

With p38 MAPKα isoform (MAPK14) (Homo sapiens, UniProt Q16539) as the test system, "CCc1cncc(Nc2cc(COc3ccc(NC(=O)Nc4cc(C(C)(C)C)nn4-c4cccc(Cl)c4)c4ccccc34)ccn2)n1" showed pIC50 of 7.42

Tested on p38 MAPKα isoform (MAPK14) (Homo sapiens, UniProt Q16539), the item "COc1ccc(-n2nc(C(C)(C)C)cc2NC(=O)Nc2ccc(OCc3ccnc(Nc4cnc(C(=O)N5CCCC5)cn4)c3)c3ccccc23)cc1F" showed pIC50 equal to 7.46

The measured pIC50 that "COC1CCN(C(=O)c2cnc(Nc3cc(COc4ccc(NC(=O)Nc5cc(C(C)(C)C)nn5-c5ccc(C)cc5)c5ccccc45)ccn3)cn2)CC1" showed for p38 MAPKα isoform (MAPK14) (Homo sapiens, UniProt Q16539) is 7.68

Param item: "COCC1CN(C(=O)c2cnc(Nc3cc(COc4ccc(NC(=O)Nc5cc(C(C)(C)C)nn5-c5ccc(C)cc5)c5ccccc45)ccn3)cn2)C1" ; param system: p38 MAPKα isoform (MAPK14) (Homo sapiens, UniProt Q16539); output pIC50: 7.85

Lab entry: p38 MAPKα isoform (MAPK14) (Homo sapiens, UniProt Q16539) assay, compound "CCc1cccc(-n2nc(C(C)(C)C)cc2NC(=O)Nc2ccc(OCc3ccnc(Nc4cnccn4)c3)c3ccccc23)c1" , pIC50 = 7.92

The compound "COCCNC(=O)Cc1cncc(Nc2cc(COc3ccc(NC(=O)Nc4cc(C(C)(C)C)nn4-c4ccc(C)cc4)c4ccccc34)ccn2)n1" , tested on p38 MAPKα isoform (MAPK14) (Homo sapiens, UniProt Q16539), showed pIC50 of 8.19
